Parameter Ki: see the listing below.
# experimental-system: Muscarinic acetylcholine receptor M2 (Homo sapiens)
# Sequence (P08172 whole entry): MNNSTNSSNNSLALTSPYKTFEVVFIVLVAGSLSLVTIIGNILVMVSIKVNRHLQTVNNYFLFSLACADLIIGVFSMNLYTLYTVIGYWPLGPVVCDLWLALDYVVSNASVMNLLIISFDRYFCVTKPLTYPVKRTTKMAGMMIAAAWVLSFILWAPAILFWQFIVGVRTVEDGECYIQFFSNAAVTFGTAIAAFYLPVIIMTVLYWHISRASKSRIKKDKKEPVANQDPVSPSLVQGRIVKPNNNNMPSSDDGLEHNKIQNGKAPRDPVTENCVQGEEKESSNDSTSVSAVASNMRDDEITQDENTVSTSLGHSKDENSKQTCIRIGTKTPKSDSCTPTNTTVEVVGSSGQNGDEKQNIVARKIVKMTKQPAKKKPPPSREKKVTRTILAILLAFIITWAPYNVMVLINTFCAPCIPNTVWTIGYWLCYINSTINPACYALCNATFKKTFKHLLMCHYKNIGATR
Number in nM, nothing else.

| smiles-code | reported-property | unit-name | readout-number |
| --- | --- | --- | --- |
| c1ccc2c(c1)C(=C1CN3CCC1CC3)c1ccccc1-2 | Ki | nM | 98 |

// switching to the query compound
The reported Ki value, Muscarinic acetylcholine receptor M2 (Homo sapiens), for O=Cc1ccc(C2=CN3CCC2CC3)s1 reads 2600

---

Parameter pKi: see the listing below.
# experimental-system: Muscarinic acetylcholine receptor M1 (Homo sapiens, UniProt P11229)
Remember the convention: pKi equals -log10 of concentration in molar.

| smiles-code | readout-number |
| --- | --- |
| CC(=O)c1ccc(C2=CN3CCC2CC3)s1 | 6.32 |

The reported pKi value, Muscarinic acetylcholine receptor M1 (Homo sapiens, UniProt P11229), for c1ccc2c(c1)C(=C1CN3CCC1CC3)c1ccccc1-2 reads 7.30

The reported pKi value, Muscarinic acetylcholine receptor M1 (Homo sapiens, UniProt P11229), for O=Cc1ccc(C2=CN3CCC2CC3)s1 reads 6.00

The reported pKi value, Muscarinic acetylcholine receptor M1 (Homo sapiens, UniProt P11229), for OC1(C2=CN3CCC2CC3)c2ccccc2CCc2ccccc21 reads 5.69

---

# experimental-system: Muscarinic acetylcholine receptor
# test-details: In vitro binding affinity towards muscarinic receptor in urinary bladder was determined
# Assay type: protein assay, Cavia porcellus
reported-property: Ki (µM)
Number in µM, nothing else.

# annotated cases, reported Ki shown
| compound | readout-number |
| --- | --- |
| CC(=O)c1ccc(C2=CN3CCC2CC3)s1 | 2.6 |
| OC1(C2=CN3CCC2CC3)c2ccccc2CCc2ccccc21 | 8 |
| c1ccc2c(c1)C(=C1CN3CCC1CC3)c1ccccc1-2 | 0.249 |
| O=Cc1ccc(C2=CN3CCC2CC3)s1 | 5.7 |

// switching to the query compound
Recorded result, COc1ccccc1C(O)C1=CN2CCC1CC2 (stereo unspecified) , Ki: 2.5

---

# experimental-system: Muscarinic acetylcholine receptor M3 (Homo sapiens)
# Sequence (P20309 whole entry): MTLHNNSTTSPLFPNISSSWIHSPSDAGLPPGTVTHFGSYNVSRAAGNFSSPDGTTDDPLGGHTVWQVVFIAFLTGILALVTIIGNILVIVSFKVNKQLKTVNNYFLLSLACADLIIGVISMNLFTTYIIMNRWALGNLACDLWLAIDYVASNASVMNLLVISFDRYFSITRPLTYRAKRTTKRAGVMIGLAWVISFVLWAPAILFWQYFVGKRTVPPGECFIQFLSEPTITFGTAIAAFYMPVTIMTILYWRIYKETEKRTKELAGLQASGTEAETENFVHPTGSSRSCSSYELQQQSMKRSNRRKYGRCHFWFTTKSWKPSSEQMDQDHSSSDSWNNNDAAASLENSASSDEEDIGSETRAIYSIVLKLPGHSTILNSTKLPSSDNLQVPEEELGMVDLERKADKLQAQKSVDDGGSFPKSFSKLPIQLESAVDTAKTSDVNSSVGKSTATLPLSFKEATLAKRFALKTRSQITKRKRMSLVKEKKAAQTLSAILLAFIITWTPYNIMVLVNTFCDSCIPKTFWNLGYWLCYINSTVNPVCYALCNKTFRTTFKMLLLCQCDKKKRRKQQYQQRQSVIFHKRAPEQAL
reported-property: pKi
Remember the convention: pKi equals -log10 of concentration in molar.

Recorded result, CC(=O)c1ccc(C2=CN3CCC2CC3)s1 , pKi: 5.59

Recorded result, O=Cc1ccc(C2=CN3CCC2CC3)s1 , pKi: 5.32

Recorded result, OC1(C2=CN3CCC2CC3)c2ccccc2Oc2ccccc21 , pKi: 4.77

Recorded result, c1ccc2c(c1)C(=C1CN3CCC1CC3)c1ccccc1-2 , pKi: 7.00

---

Muscarinic acetylcholine receptor M2 (Homo sapiens) measurements of Ki, listed per entry.

# annotated cases, reported Ki shown
| smiles-code | reported-property | result |
| --- | --- | --- |
| OC1(C2=CN3CCC2CC3)c2ccccc2-c2ccccc21 | Ki | > 5 µM |
| OC1(C2=CN3CCC2CC3)c2ccccc2Oc2ccccc21 | Ki | > 8 µM |

// switching to the query molecule
Recorded result, OC1(C2=CN3CCC2CC3)c2ccccc2C=Cc2ccccc21 , Ki: > 0.2 µM

---

# experimental-system: Muscarinic acetylcholine receptor M1 (Homo sapiens)
# Sequence (P11229 whole entry): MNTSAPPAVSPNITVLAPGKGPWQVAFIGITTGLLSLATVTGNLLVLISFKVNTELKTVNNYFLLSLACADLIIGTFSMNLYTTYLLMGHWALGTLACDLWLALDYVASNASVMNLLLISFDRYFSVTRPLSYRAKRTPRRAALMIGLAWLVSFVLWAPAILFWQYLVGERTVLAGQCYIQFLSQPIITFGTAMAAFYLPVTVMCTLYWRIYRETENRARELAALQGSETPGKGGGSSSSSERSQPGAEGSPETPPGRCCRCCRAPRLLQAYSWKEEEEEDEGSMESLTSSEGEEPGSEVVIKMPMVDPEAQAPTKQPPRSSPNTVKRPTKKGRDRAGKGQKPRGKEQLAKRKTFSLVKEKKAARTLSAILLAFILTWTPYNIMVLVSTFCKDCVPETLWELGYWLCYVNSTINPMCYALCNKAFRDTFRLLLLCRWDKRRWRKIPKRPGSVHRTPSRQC
pKi: −log10 of the molar value.
Parameter pKi: see the listing below.

Recorded result, OC1(C2=CN3CCC2CC3)c2ccccc2Oc2ccccc21 , pKi: < 5.10

Recorded result, OC1(C2=CN3CCC2CC3)c2ccccc2-c2ccccc21 , pKi: < 5.30

Recorded result, OC1(C2=CN3CCC2CC3)c2ccccc2C=Cc2ccccc21 , pKi: < 6.70
